assay: Ratio of drug concentration in brain to plasma in C57BL/6J mouse at 0.1 to 0.7 mg/kg, iv measured after 4 hrs; format: ADME, organism-based; details: brain and plasma, dose 0.1-0.7 mg/kg
Quick list: Kp at 4 h per entry.

CN(C)c1ccc(/N=N/c2nc3ccc(OCCOCCOC45CC6CC(CC(C6)C4)C5)cc3s2)cc1 ... 4.89

Then there is this molecule:
Task: Quick check: Kp at 4 h of CN(C)c1ccc(/N=N/c2nc3ccc(OCCOCCOCCOCCOC45CC6CC7C8CC(CC74)CC5C8C6)cc3s2)cc1 ?
Result: 0.13

* * *

assay: Efflux ratio of apparent permeability across basolateral to apical side over apical to basolateral side in human Caco-2 cells at 10 uM; format: ADME, cell-based; settings: Caco-2
Quick list: efflux ratio at 10 µM per entry.

CN(C)c1ccc(/N=N/c2nc3ccc(OCCOCCOCCOCCOC45CC6CC(CC(C6)C4)C5)cc3s2)cc1 ... 1.2
CN(C)c1ccc(/N=N/c2nc3ccc(OCCOCCOCCOCCOC45CC6CC7C8CC(CC74)CC5C8C6)cc3s2)cc1 ... 0.235

Task: Quick check: efflux ratio at 10 µM of CC(C)C[C@H](NC(=O)[C@@H](O)[C@H](N)Cc1ccccc1)C(=O)NCCOCCOCCOc1ccc2nc(/N=N/c3ccc(N(C)C)cc3)sc2c1 ?
Result: 0.19

* * *

assay: Apparent permeability across basolateral to apical side in human Caco-2 cells at 10 uM; format: ADME, cell-based; details: Caco-2
ENDPOINT_NAME: Papp B→A at 10 µM (×10⁻⁶ cm/s)
I only need the number, in ×10⁻⁶ cm/s, no unit after it.

Before answering, review these 3 worked examples.
CN(C)c1ccc(/N=N/c2nc3ccc(OCCOCCOCCOCCOC45CC6CC7C8CC(CC74)CC5C8C6)cc3s2)cc1 ... 1.25
CN(C)c1ccc(/N=N/c2nc3ccc(OCCOCCOC45CC6CC(CC(C6)C4)C5)cc3s2)cc1 ... 4.71
CC(C)C[C@H](NC(=O)[C@@H](O)[C@H](N)Cc1ccccc1)C(=O)NCCOCCOCCOc1ccc2nc(/N=N/c3ccc(N(C)C)cc3)sc2c1 ... 0.196

Then there is this compound:
Task: Quick check: Papp B→A at 10 µM of CN(C)c1ccc(/N=N/c2nc3ccc(OCCOCCOCCOCCOC45CC6CC(CC(C6)C4)C5)cc3s2)cc1 ?
Result: 0.118

Data origin, for the record: ChEMBL document CHEMBL5038672
